target under test: human FLT-3 (Arg571-Ser993) (Homo sapiens, UniProt P36888)
Construct: human FLT-3 (Arg571-Ser993); GST (N); purchased Cell Signaling Technology; host or cells: baculovirus expression system
Sequence (P36888 571-993): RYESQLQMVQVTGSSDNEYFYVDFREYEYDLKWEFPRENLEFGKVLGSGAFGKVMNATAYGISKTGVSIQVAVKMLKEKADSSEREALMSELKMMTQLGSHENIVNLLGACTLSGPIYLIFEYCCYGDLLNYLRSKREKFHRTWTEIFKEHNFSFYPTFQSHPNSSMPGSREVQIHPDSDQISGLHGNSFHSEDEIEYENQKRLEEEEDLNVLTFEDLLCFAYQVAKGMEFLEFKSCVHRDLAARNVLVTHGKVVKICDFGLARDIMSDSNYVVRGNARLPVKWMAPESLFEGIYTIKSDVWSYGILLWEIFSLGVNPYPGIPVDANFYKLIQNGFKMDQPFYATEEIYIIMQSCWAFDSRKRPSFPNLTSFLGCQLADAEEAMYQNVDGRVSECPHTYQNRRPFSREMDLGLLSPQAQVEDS
test protocol: FLT-3 kinase assay (HTScan kit, DELFIA)
Format: biochemical
assay context: compound at 0.1 μM; read-out: FLT-3 0.1 μM, % of inhibition relative to control
property: inhibition at 0.1 µM (%)

• Cc1ccc2c(c1)/C(=C\c1ccc3cccccc1-3)C(=O)N2 = 0.5
• Cc1ccc2c(c1)/C(=C\c1c3cccccc-3nc1N)C(=O)N2 = 33.3
• CN(C)Cc1c(/C=C2/C(=O)Nc3ccc(F)cc32)cc2cccccc1-2 = 43
• O=C1Nc2ccc(F)cc2/C1=C/c1cc2cccccc-2c1 = 74.7
